test_context: 25 °C
Recorded log10(solubility) for the following compounds
quantity_measured: log10(solubility) (log10 of the value in mM)

compound | readout_value
Sc1ccccc1 | 0.88
CCC(C)OC (stereo unspecified) | 2.27
Cc1ccc(Br)cc1 | -0.19
CC(C)[C@@H](C)CO | 2.63
CCS | 2.22
C=COC1CC1 | 1.90
Brc1cc(Br)cc(Br)c1 | -2.60
CCOC(=O)CCCC(=O)OCC | 1.67
CCCC(C)(C)CO | 1.52
Brc1ccccc1Br | -0.50
CC(C)OC=O | 2.37
ICCI | -0.22
Cc1c2ccccc2cc2c1cc(F)c1ccccc12 | -4.31
CCc1ccccc1Br | -0.67
CC(C)c1ccccc1Br | -1.19
CC1CCOC1 (stereo unspecified) | 3.09
